B1: DnaJ homolog subfamily C member 5, residues 16 to 77; numbered along this chain, Q9H3Z4 (parent)
chain: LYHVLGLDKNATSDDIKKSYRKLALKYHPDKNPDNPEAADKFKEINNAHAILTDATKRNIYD

variants of: B1; assay: abundance fitness (aPCA) (normalised: wild type 0, dead -1); higher = more abundant; growth selection in yeast, the domain comes from the species named; conditions: Homo sapiens

>  <variant string>
N35G

>  <abundance fitness>
-0.281

$$$$
>  <variant string>
K57N

>  <abundance fitness>
-0.575

$$$$
>  <variant string>
K41Y

>  <abundance fitness>
-0.254

$$$$
>  <variant string>
I51Y

>  <abundance fitness>
-0.353

$$$$
>  <variant string>
S13H

>  <abundance fitness>
-0.496

$$$$
>  <variant string>
K57R

>  <abundance fitness>
-0.059

$$$$
>  <variant string>
I51N

>  <abundance fitness>
-0.304

$$$$
>  <variant string>
I51D

>  <abundance fitness>
0.123

$$$$
>  <variant string>
T53L

>  <abundance fitness>
-0.032

$$$$
>  <variant string>
R58W

>  <abundance fitness>
-0.636

$$$$
>  <variant string>
I51A

>  <abundance fitness>
-0.146

$$$$
>  <variant string>
I60P

>  <abundance fitness>
-0.039

$$$$
>  <variant string>
A48I

>  <abundance fitness>
-0.769

$$$$
>  <variant string>
Y20W

>  <abundance fitness>
0.329

$$$$
>  <variant string>
I45R

>  <abundance fitness>
-0.623

$$$$
>  <variant string>
Y20E

>  <abundance fitness>
0.2

$$$$
>  <variant string>
V4W

>  <abundance fitness>
-0.687

$$$$
>  <variant string>
K9I

>  <abundance fitness>
-0.099

$$$$
>  <variant string>
V4A

>  <abundance fitness>
0.034

$$$$
>  <variant string>
A11V

>  <abundance fitness>
-0.661

$$$$
>  <variant string>
L25Y

>  <abundance fitness>
-0.299

$$$$
>  <variant string>
Y27C

>  <abundance fitness>
-0.239

$$$$
>  <variant string>
K17F

>  <abundance fitness>
-0.52

$$$$
>  <variant string>
Y2G

>  <abundance fitness>
-0.28

$$$$
>  <variant string>
H28S

>  <abundance fitness>
0.219

$$$$
>  <variant string>
D14N

>  <abundance fitness>
-0.151

$$$$
>  <variant string>
K41Q

>  <abundance fitness>
-0.333

$$$$
>  <variant string>
D40E

>  <abundance fitness>
-0.171

$$$$
>  <variant string>
K43S

>  <abundance fitness>
-0.043

$$$$
>  <variant string>
I16C

>  <abundance fitness>
-0.44

$$$$
>  <variant string>
L52Q

>  <abundance fitness>
-0.572

$$$$
>  <variant string>
I60E

>  <abundance fitness>
0.522

$$$$
>  <variant string>
A55D

>  <abundance fitness>
-0.514

$$$$
>  <variant string>
L52K

>  <abundance fitness>
-0.419

$$$$
>  <variant string>
L1G

>  <abundance fitness>
-0.539

$$$$
>  <variant string>
D30A

>  <abundance fitness>
0.14

$$$$
>  <variant string>
R58Q

>  <abundance fitness>
-0.161

$$$$
>  <variant string>
I51P

>  <abundance fitness>
-0.166

$$$$
>  <variant string>
K9S

>  <abundance fitness>
-0.125

$$$$
>  <variant string>
Y2A

>  <abundance fitness>
-0.496

$$$$
>  <variant string>
H3T

>  <abundance fitness>
-0.017

$$$$
>  <variant string>
D15C

>  <abundance fitness>
-0.24

$$$$
>  <variant string>
K26T

>  <abundance fitness>
-0.189

$$$$
>  <variant string>
I45H

>  <abundance fitness>
-0.792

$$$$
>  <variant string>
D30E

>  <abundance fitness>
0.01

$$$$
>  <variant string>
R58A

>  <abundance fitness>
-0.044

$$$$
